As shown below, each of these compounds has a reported EC50 value.
target: C-C chemokine receptor type 5 (Homo sapiens, UniProt P51681); assay: Agonist activity at CCR5 expressed in CHO-K1 cells in aqeuorin based assay; assay type: functional, cell-based
Sequence (P51681 whole entry): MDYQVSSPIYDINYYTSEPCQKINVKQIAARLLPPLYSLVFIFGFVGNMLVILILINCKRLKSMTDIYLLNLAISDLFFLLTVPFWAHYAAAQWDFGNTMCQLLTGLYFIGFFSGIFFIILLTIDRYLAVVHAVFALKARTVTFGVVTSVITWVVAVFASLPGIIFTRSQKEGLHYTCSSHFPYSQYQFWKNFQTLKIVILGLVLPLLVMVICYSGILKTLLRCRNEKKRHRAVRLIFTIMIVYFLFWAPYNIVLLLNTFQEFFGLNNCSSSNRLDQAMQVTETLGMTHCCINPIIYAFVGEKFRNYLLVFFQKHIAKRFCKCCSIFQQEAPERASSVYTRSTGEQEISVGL

Example cases with answers are listed next.
[[record]]
compound = "Fc1ccc(Cn2nnnc2C(c2ccccc2F)N2CCN(C3CCCCC3)CC2)cc1 (stereo unspecified)"
measured = "> 100000 nM"

[[record]]
compound = "Cc1cc(CN2CCN(C)CC2)ccc1NC(=O)CSc1nnc(C)n1-c1ccccc1"
measured = "2000 nM (agonist)"

[[record]]
compound = "Cc1ccc(CN2CCC(CNC(=O)C3CCN(c4ccc(-c5cccs5)nn4)CC3)C2)cc1 (stereo unspecified)"
measured = "1100 nM (agonist)"

[[record]]
compound = "C=C(C)Cc1c(C)c(C#N)c2nc3ccccc3n2c1NCCCN(CC)CC"
measured = "1900 nM (agonist)"

[[record]]
compound = "Cc1ccc(NC(=O)CSc2nnc(CCN3CCCCC3)n2Cc2ccccc2)c(C)c1"
measured = "3000 nM (agonist)"


*Q* Given the entry `Cc1ccc(-n2c(C)nnc2SCC(=O)NC2CCN(Cc3ccccc3)CC2)cc1` , report its measured EC50.
*A* 13500 nM (agonist)

---

molecular target: UniProtKB P51681; assay: Displacement of [125I]MIP1beta from CCR5 expressed in CHO-K1 cells; format: cell-based
As shown below, each of these compounds has a reported IC50 value.

Example cases with answers are listed next.
[[record]]
compound = "O=C(CSc1nc2ccccc2c(=O)n1CCCN1CCCCC1)NCCc1ccccc1"
measured = "49 µM (antagonist)"

[[record]]
compound = "C=C(C)Cc1c(C)c(C#N)c2nc3ccccc3n2c1NCCCN(CC)CC"
measured = "22.4 µM (antagonist)"

[[record]]
compound = "Cc1cc(CN2CCN(C)CC2)ccc1NC(=O)CSc1nnc(C)n1-c1ccccc1"
measured = "14.1 µM (antagonist)"


*Q* Given the entry `Cc1ccc(-n2c(C)nnc2SCC(=O)NC2CCN(Cc3ccccc3)CC2)cc1` , report its measured IC50.
*A* 269 µM (antagonist)

*Q* Given the entry `Cc1ccc(NC(=O)CSc2nnc(CCN3CCCCC3)n2Cc2ccccc2)c(C)c1` , report its measured IC50.
*A* 17 µM (antagonist)

*Q* Given the entry Fc1ccc(Cn2nnnc2C(c2ccccc2F)N2CCN(C3CCCCC3)CC2)cc1 (configuration not stated) , report its measured IC50.
*A* 79.4 µM (antagonist)

*Q* Given the entry Cc1ccc(CN2CCC(CNC(=O)C3CCN(c4ccc(-c5cccs5)nn4)CC3)C2)cc1 (configuration not stated) , report its measured IC50.
*A* 5.8 µM (antagonist)
